Molecular target: Adenosine A2A (Homo sapiens (Human), UniProt P29274)
Sequence (P29274 whole entry): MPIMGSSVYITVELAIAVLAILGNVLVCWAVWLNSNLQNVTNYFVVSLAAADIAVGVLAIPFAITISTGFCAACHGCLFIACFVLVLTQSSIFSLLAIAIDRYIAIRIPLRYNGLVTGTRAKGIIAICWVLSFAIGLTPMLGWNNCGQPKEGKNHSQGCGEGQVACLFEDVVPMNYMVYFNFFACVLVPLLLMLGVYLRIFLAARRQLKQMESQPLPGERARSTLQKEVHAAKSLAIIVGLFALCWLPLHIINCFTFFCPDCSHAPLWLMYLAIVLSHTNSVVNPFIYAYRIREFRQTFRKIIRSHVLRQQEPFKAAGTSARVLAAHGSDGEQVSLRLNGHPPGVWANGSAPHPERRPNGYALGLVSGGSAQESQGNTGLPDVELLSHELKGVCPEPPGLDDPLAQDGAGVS
Test: A2A Tag-Lite HTRF assay
Format: binding
Settings: Tag-Lite Adenosine A2A labeled cells, fluorescent ligand 12.5 nM; read-out: A2A_Ki
Description: Example C. A2A Tag-Lite® HTRF Assay
measurement label: Ki

Guide cases for Ki, answers given:
CN1CCC(NCc2cccc(F)c2Cc2nc3c(N)nc(-c4cccc(C#N)c4)c(-c4ccncn4)n3n2)C1=O (stereo not shown) [Example 72] : < 10 nM
Cc1nc(C(O)C(F)(F)F)c(-c2c(-c3cccc(C#N)c3F)nc(N)c3nc(Cc4ccccn4)nn23)o1 (stereo not shown) [Example 88] : < 10 nM
Cc1ncoc1-c1c(-c2cccc(C#N)c2F)nc(N)c2nc(Cc3ccccn3)nn12 [Example 86] : < 10 nM

### Prompt What value of measured Ki is listed for CCNC(=O)c1cc2c(N)nc(-c3cccc(C#N)c3)c(C(C)(F)F)n2n1 [Example 5] ?
### Response < 10 nM

----------
target: human adenosine A2B receptor (Homo sapiens (Human), UniProt P29275); experiment: Adenosine A2B Receptor Cyclic AMP GS Assay; type: cell-based; conditions: A2B_cAMP_EC50 (nM), HEK-293 cells expressing human A2B, agonist NECA 12 nM
Sequence (P29275 whole entry): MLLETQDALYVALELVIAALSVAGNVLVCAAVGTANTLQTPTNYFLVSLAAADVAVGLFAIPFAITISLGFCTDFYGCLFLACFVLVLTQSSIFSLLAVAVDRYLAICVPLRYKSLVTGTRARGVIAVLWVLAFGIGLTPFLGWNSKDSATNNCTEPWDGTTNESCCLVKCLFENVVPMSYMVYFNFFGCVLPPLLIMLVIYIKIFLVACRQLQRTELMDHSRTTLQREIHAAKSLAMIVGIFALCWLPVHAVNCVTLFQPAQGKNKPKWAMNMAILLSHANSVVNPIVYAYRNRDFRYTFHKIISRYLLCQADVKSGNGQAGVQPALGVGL
Listing of recorded EC50 by entry.

Guide cases for EC50, answers given:
Cc1nc(C(O)C(F)(F)F)c(-c2c(-c3cccc(C#N)c3F)nc(N)c3nc(Cc4ccccn4)nn23)o1 (stereo not drawn) : 10 to 100 nM
CN(C)Cc1cccc(F)c1C(O)c1nc2c(N)nc(-c3cccc(C#N)c3)c(-c3ccncn3)n2n1 (single isomer, unassigned) [Example 100] : 100 to 1000 nM
Cc1nc(C(C)O)c(-c2c(-c3cccc(C#N)c3)nc(N)c3cc(Cc4ccccn4)nn23)o1 (stereo not drawn) : 10 to 100 nM
N#Cc1cccc(-c2nc(N)c3nc(Cc4ccccc4CN[C@H]4CCNC4=O)nn3c2-c2ccncn2)c1 : < 10 nM
N#Cc1cccc(-c2cn3nc(Cc4ncccc4Nc4cnn(Cc5ccncc5)c4)nc3c(N)n2)c1F : 10 to 100 nM

### Prompt What value of measured EC50 is listed for Cc1nc(C(O)C(F)F)c(-c2c(-c3cccc(C#N)c3F)nc(N)c3nc(Cc4ccccn4)nn23)o1 (stereo not drawn) ?
### Response 10 to 100 nM

### Prompt What value of measured EC50 is listed for N#Cc1cccc(-c2nc(N)c3nc(Cn4cccc5ccnc4-5)nn3c2-c2ccncn2)c1 ?
### Response < 10 nM

### Prompt What value of measured EC50 is listed for N#Cc1cccc(-c2nc(N)c3nc(Cc4c(F)cccc4CN4CC[C@H](C(=O)O)C4)nn3c2-c2ccncn2)c1 ?
### Response 10 to 100 nM

### Prompt What value of measured EC50 is listed for CCNC(=O)c1cc2c(N)nc(-c3cccc(C#N)c3)c(-c3ccnn3CC)n2n1 ?
### Response 10 to 100 nM

### Prompt What value of measured EC50 is listed for Cn1cc(Cn2cc(-c3cccc(F)c3Cc3nc4c(N)nc(-c5cccc(C#N)c5F)cn4n3)cn2)cn1 ?
### Response 10 to 100 nM

### Prompt What value of measured EC50 is listed for Cn1cc(-c2c(-c3cccc(C#N)c3F)nc(N)c3nc(Cc4ccccn4)nn23)ccc1=O ?
### Response 10 to 100 nM

### Prompt What value of measured EC50 is listed for N#Cc1cccc(-c2nc(N)c3nc(Cc4c(F)cccc4CN4CCN5C(=O)CCC5C4)nn3c2-c2ccncn2)c1 (stereo not drawn) ?
### Response < 10 nM

### Prompt What value of measured EC50 is listed for N#Cc1cccc(-c2nc(N)c3ncnn3c2-c2ccc(=O)[nH]c2)c1 ?
### Response < 10 nM

### Prompt What value of measured EC50 is listed for CN(C)Cc1cccc(F)c1C(O)c1nc2c(N)nc(-c3cccc(C#N)c3)c(-c3ccncn3)n2n1 (single isomer, unassigned) [Example 101] ?
### Response < 10 nM

### Prompt What value of measured EC50 is listed for CCn1nccc1-c1c(-c2cccc(C#N)c2)nc(N)c2nc(C(O)c3c(F)cccc3F)nn12 (single isomer, unassigned) ?
### Response < 10 nM

----------
target: human adenosine A2B receptor (Homo sapiens (Human)); assay: Adenosine A2B Receptor Cyclic AMP GS Assay; assay type: cell-based; conditions: A2B_cAMP_EC50 (nM), HEK-293 cells expressing human A2B, agonist NECA 12 nM
measurement label: EC50

CCOC(=O)Nc1nc2c(N)nc(-c3cccc(C#N)c3)cn2n1 : > 1000 nM
N#Cc1cccc(-c2cn3nc(Cc4ccccc4F)c(C#N)c3c(N)n2)c1 : 100 to 1000 nM
N#Cc1cccc(-c2nc(N)c3nc(C(O)c4c(F)cccc4CN4CCCC4)nn3c2-c2ccncn2)c1 (single isomer, unassigned) [Example 111] : < 10 nM
N#Cc1cccc(-c2nc(N)c3nc(Cc4c(F)cccc4CN[C@H]4C[C@@H](C(=O)O)C4)nn3c2-c2ccncn2)c1 : < 10 nM
Cc1cccnc1COc1nc2c(N)nc(-c3cccc(C#N)c3)c(-c3ccncn3)n2n1 : < 10 nM
N#Cc1cccc(-c2nc(N)c3nc(Cn4ccc5cccnc54)nn3c2-c2ccncn2)c1 : < 10 nM
CCn1nncc1-c1c(-c2cccc(C#N)c2)nc(N)c2cc(Cc3ccccn3)nn12 : < 10 nM
N#Cc1cccc(-c2nc(N)c3nc(Cc4ccccn4)nn3c2-c2ccncn2)c1 : < 10 nM
Cc1ncoc1-c1c(-c2cccc(C#N)c2)nc(N)c2nc(C(=O)N3CCC3)nn12 : < 10 nM
N#Cc1cccc(-c2nc(N)c3cc(C(O)c4ccccc4F)nn3c2-c2ccncn2)c1 (centres unmarked) [Example 38] : < 10 nM

### Prompt What value of measured EC50 is listed for N#Cc1cccc(-c2nc(N)c3nc(Cn4cc5ccccc5n4)nn3c2-c2ccncn2)c1 ?
### Response 10 to 100 nM

### Prompt What value of measured EC50 is listed for CCNC(=O)c1cc2c(N)nc(-c3cccc(C#N)c3)c(-c3ccncn3)n2n1 ?
### Response 10 to 100 nM

### Prompt What value of measured EC50 is listed for N#Cc1cccc(-c2nc(N)c3nc(C(O)c4cc(F)ccc4F)nn3c2-c2ccncn2)c1 (single isomer, unassigned) ?
### Response < 10 nM

### Prompt What value of measured EC50 is listed for N#Cc1cccc(-c2cn3nc(Cc4c(F)cccc4-c4cnn(CC(N)=O)c4)nc3c(N)n2)c1F ?
### Response < 10 nM

### Prompt What value of measured EC50 is listed for Cc1ncoc1-c1c(-c2cccc(C#N)c2)nc(N)c2nc(Cc3ccccn3)nn12 ?
### Response < 10 nM

### Prompt What value of measured EC50 is listed for CCNC(=O)c1cc2c(N)nc(-c3cccc(C#N)c3)c(C(C)(F)F)n2n1 ?
### Response 100 to 1000 nM

### Prompt What value of measured EC50 is listed for Cc1ncoc1-c1c(-c2cccc(C#N)c2)nc(N)c2nc(C(N)c3c(F)cccc3F)nn12 (centres unmarked) ?
### Response < 10 nM

### Prompt What value of measured EC50 is listed for [2H]C([2H])([2H])n1nc(-c2c(-c3cccc(C#N)c3)nc(N)c3nc(Cc4ccccn4)nn23)ccc1=O ?
### Response < 10 nM

### Prompt What value of measured EC50 is listed for N#Cc1cccc(-c2nc(N)c3cc(Cc4ccccn4)nn3c2-c2ccncn2)c1 ?
### Response < 10 nM

### Prompt What value of measured EC50 is listed for Cn1cc(-c2cccc(F)c2Cc2nc3c(N)nc(-c4cccc(C#N)c4F)cn3n2)cn1 ?
### Response < 10 nM

### Prompt What value of measured EC50 is listed for N#Cc1cccc(-c2cn3nc(Cc4ccccn4)cc3c(N)n2)c1 ?
### Response < 10 nM

### Prompt What value of measured EC50 is listed for N#Cc1cccc(-c2nc(N)c3cc(C(=O)N4CCCC4)nn3c2-c2ccncn2)c1 ?
### Response 10 to 100 nM

### Prompt What value of measured EC50 is listed for N#Cc1cccc(-c2nc(N)c3cc(CN4CCC4)nn3c2-c2ccncn2)c1 ?
### Response 100 to 1000 nM

### Prompt What value of measured EC50 is listed for CCNC(=O)c1cc2c(N)nc(-c3cccc(C#N)c3)c(C3(C(F)(F)F)CC3)n2n1 ?
### Response > 1000 nM

### Prompt What value of measured EC50 is listed for Cn1cc(-c2ccccc2Cc2nc3c(N)nc(-c4cccc(C#N)c4)c(-c4ccncn4)n3n2)cn1 ?
### Response < 10 nM

### Prompt What value of measured EC50 is listed for CN1CC[C@H](NCc2cccc(F)c2Cc2nc3c(N)nc(-c4cccc(C#N)c4F)cn3n2)C1=O ?
### Response < 10 nM

### Prompt What value of measured EC50 is listed for N#Cc1cccc(-c2nc(N)c3nc(Cc4cccc5ocnc45)nn3c2-c2ccncn2)c1 ?
### Response < 10 nM

### Prompt What value of measured EC50 is listed for CCN(C)C(=O)c1cc2c(N)nc(-c3cccc(C#N)c3)c(-c3ccncn3)n2n1 ?
### Response < 10 nM

### Prompt What value of measured EC50 is listed for Cn1nc(-c2c(-c3cccc(C#N)c3)nc(N)c3nc(Cc4ccccn4)nn23)ccc1=O ?
### Response < 10 nM

### Prompt What value of measured EC50 is listed for CN[C@H]1C[C@H](n2cc(-c3cccc(F)c3Cc3nc4c(N)nc(-c5cccc(C#N)c5F)cn4n3)cn2)C1 ?
### Response 10 to 100 nM

### Prompt What value of measured EC50 is listed for N#Cc1cccc(-c2nc(N)c3nc(Cc4ccccn4)nn3c2-c2ccc(O)nc2)c1 ?
### Response < 10 nM

### Prompt What value of measured EC50 is listed for CNC(c1nc2c(N)nc(-c3cccc(C#N)c3)c(-c3ocnc3C)n2n1)c1c(F)cccc1F (centres unmarked) ?
### Response < 10 nM
